Just for reference, PubChem BioAssay (NCI) is where these values come from.

# Tested on: MDA-MB-435
# Assay Details: NCI tumour cell line growth inhibition, 48 h

# Compound, TGI
measured = [
    ("CCOC(=O)c1nc2ccccc2nc1Oc1ccc(F)cc1", "> 100 µM"),
    ("COC(=O)[C@@H](N1C(=O)c2ccccc2C1=O)C1(C)CC(Cl)=NO1 (some centres not stated)", "> 100 µM"),
    ("O=C(NNC(=O)c1cc2ccccc2[nH]1)c1cc2ccccc2[nH]1", "> 100 µM"),
    ("CC(C)OC(=O)OCOP(=O)(OCOC(=O)OC(C)C)C1CCCN(O)C1=O (configuration not stated)", "> 100 µM"),
    ("CC(=O)OCC1OC(Sc2nc(-c3ccccc3)c(C#N)c(=O)n2C2OC(COC(C)=O)C(OC(C)=O)C(OC(C)=O)C2OC(C)=O)C(OC(C)=O)C(OC(C)=O)C1OC(C)=O (configuration not stated)", "> 100 µM"),
    ("O=C(N=Nc1c(O)[nH]c2c(Cl)cc(Cl)cc12)C(=O)Nc1cccc(C(F)(F)F)c1", "> 100 µM"),
    ("CC1(C)CC[C@]2(C(=O)O)CC[C@]3(C)C(=CC[C@@H]4[C@@]5(C)C/C(=C/c6cccnc6)[C@H](O)C(C)(C)[C@@H]5CC[C@]43C)[C@@H]2C1", "> 100 µM"),
    ("Cc1nnc(NS(=O)(=O)c2ccc(N=Nc3c(O)c(C(=O)O)cc4ccccc34)cc2)s1", "> 100 µM"),
    ("COC(=O)c1c(O)ccc2c1c1c(n2CCc2ccccc2)C(=O)c2ccccc2C1", "67 µM"),
    ("C[C@H]1CC(=O)C[C@@H]2CC[C@@H]3[C@H](CC[C@]4(C)C(OC(=O)c5cccc6c(=O)c7ccccc7[nH]c56)CC[C@@H]34)[C@]21C (some centres not stated)", "> 100 µM"),
    ("O=c1[nH]c2c(ccc3cnccc32)c2c1CCC2", "1.38 µM"),
    ("Cc1ccccc1C1N=C2Oc3ccccc3C=C2C(=O)N1 (configuration not stated)", "0.824 µM"),
]
